Biological target: AR (Homo sapiens)
Construct: endogenous in cells; host or cells: VCaP cells
Experiment: VCAP AR Degradation Assay
Format: cell-based
Details: VCaP cells, 24 h, AR ELISA; lowest measured AR level normalized to DMSO control (AR degradation efficiency)
Counter-ions that a name gives are not always drawn.

molecule: Cn1nc(N2CCC(=O)NC2=O)c2cccc(NC(=O)CN3CCN(CCC[C@H]4CC[C@H](N5C(=S)N(c6cnc(C#N)c(C(F)(F)F)c6)C(=O)C5(C)C)CC4)C[C@@H]3C(F)(F)F)c21 [Cmpd 22, hydrochloride]
Y: * (0<Y≤20%)

molecule: Cn1nc(N2CCC(=O)NC2=O)c2cccc(NC(=O)CN3CCN(CCCO[C@H]4CC[C@H](N5C(=S)N(c6ccc(C#N)c(C(F)(F)F)c6)C(=O)C5(C)C)CC4)C[C@@H]3C(F)(F)F)c21 [Cmpd 26]
Y: * (0<Y≤20%)

----------
Target: AR (Homo sapiens, UniProt P10275)
Construct: endogenous in cells; host or cells: VCaP cells
Sequence (P10275 whole entry): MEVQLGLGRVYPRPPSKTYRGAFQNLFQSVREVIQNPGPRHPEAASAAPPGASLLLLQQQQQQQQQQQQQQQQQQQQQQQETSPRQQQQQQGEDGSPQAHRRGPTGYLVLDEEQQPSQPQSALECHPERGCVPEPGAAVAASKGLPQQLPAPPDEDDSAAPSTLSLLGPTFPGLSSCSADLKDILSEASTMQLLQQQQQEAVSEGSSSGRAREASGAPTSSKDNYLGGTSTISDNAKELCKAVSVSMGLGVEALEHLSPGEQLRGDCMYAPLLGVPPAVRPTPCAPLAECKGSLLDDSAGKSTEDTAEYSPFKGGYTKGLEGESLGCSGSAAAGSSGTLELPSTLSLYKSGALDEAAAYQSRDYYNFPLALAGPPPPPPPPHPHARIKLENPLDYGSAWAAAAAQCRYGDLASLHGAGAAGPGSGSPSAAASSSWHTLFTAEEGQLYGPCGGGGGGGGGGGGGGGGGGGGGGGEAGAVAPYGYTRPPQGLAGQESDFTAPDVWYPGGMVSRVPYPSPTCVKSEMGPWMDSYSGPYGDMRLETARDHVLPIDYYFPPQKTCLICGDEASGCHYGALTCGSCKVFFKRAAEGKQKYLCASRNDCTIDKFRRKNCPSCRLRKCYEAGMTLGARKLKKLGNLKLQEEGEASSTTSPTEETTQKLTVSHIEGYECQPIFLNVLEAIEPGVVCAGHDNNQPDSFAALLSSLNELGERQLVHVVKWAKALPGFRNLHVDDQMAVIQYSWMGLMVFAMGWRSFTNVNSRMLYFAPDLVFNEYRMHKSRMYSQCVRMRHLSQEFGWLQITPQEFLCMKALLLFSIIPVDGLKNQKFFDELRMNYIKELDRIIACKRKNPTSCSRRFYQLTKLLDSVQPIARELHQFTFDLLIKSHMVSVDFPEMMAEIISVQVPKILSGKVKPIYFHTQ
Assay: VCAP AR Degradation Assay
Assay type: cell-based
Settings: VCaP cells, 24 h, AR ELISA; concentration of compound when AR level = 50% of DMSO control (50% AR degradation)
Structures can show the parent of a compound that is named as a salt.
Listing of recorded DC50 by entry.

# annotated cases, reported DC50 shown
compound: C[C@@H]1CN(CCO[C@H]2CC[C@H](N3C(=S)N(c4cnc(C#N)c(Cl)c4)C(=O)C3(C)C)CC2)C[C@H](C)N1CC(=O)Nc1cccc2c(N3CCC(=O)NC3=O)nn(C)c12 [Cmpd 6, hydrochloride]
observed property: DC50
result: ≤ 2 nM
--
compound: C[C@@H]1C[C@@H](CCOC2CCC(N3C(=S)N(c4cnc(C#N)c(C(F)(F)F)c4)C(=O)C3(C)C)CC2)C[C@H](C)N1CC(=O)Nc1cccc2c(N3CCC(=O)NC3=O)nn(C)c12 (some centres unmarked)
observed property: DC50
result: ≤ 2 nM
--
compound: Cn1nc(N2CCC(=O)NC2=O)c2cccc(NC(=O)CN3CCN(CCCO[C@H]4CC[C@H](N5C(=S)N(c6ccc(C#N)c(C(F)(F)F)c6)C(=O)C5(C)C)CC4)C[C@@H]3C(F)(F)F)c21
observed property: DC50
result: 2 to 10 nM
--
compound: C[C@@H]1C[C@H](OCCC[C@H]2CC[C@H](N3C(=S)N(c4cnc(C#N)c(C(F)(F)F)c4)C(=O)C3(C)C)CC2)C[C@H](C)N1CC(=O)Nc1cccc2c(N3CCC(=O)NC3=O)nn(C)c12
observed property: DC50
result: 2 to 10 nM
--
compound: C[C@@H]1C[C@H](OCCO[C@H]2CC[C@H](N3C(=S)N(c4ccc(C#N)c(C(F)(F)F)c4)C(=O)C3(C)C)CC2)C[C@H](C)N1CC(=O)Nc1cccc2c(N3CCC(=O)NC3=O)nn(C)c12
observed property: DC50
result: 2 to 10 nM

Request: Entry under review: `C[C@@H]1C[C@H](OCCO[C@H]2CC[C@H](N3C(=S)N(c4cnc(C#N)c(C(F)(F)F)c4)C(=O)C3(C)C)CC2)C[C@H](C)N1CC(=O)Nc1cccc2c(N3CCC(=O)NC3=O)nn(C)c12` . Reported DC50?
Response: ≤ 2 nM

Request: Entry under review: C[C@@H]1CN(CCCO[C@H]2CC[C@H](N3C(=S)N(c4cnc(C#N)c(C(F)(F)F)c4)C(=O)C3(C)C)CC2)C[C@H](C)N1CC(=O)Nc1cccc2c(N3CCC(=O)NC3=O)nn(C)c12 [Cmpd 7, hydrochloride] . Reported DC50?
Response: ≤ 2 nM

Request: Entry under review: `C[C@@H]1CN(CCO[C@H]2CC[C@H](N3C(=S)N(c4ccc(C#N)c(C(F)(F)F)c4)C(=O)C3(C)C)CC2)C[C@H](C)N1CCC(=O)Nc1cccc2c(N3CCC(=O)NC3=O)nn(C)c12` . Reported DC50?
Response: 2 to 10 nM
